Here the recorded pKd is given for each entry.
# target-or-test-system: T1, BAM1 extracellular domain (BARELY ANY MERISTEM1 receptor kinase, residues 20 to 637) (Arabidopsis, UniProt O49545 20-637, biotin (by biotin ligase BirA))
# T1 chain: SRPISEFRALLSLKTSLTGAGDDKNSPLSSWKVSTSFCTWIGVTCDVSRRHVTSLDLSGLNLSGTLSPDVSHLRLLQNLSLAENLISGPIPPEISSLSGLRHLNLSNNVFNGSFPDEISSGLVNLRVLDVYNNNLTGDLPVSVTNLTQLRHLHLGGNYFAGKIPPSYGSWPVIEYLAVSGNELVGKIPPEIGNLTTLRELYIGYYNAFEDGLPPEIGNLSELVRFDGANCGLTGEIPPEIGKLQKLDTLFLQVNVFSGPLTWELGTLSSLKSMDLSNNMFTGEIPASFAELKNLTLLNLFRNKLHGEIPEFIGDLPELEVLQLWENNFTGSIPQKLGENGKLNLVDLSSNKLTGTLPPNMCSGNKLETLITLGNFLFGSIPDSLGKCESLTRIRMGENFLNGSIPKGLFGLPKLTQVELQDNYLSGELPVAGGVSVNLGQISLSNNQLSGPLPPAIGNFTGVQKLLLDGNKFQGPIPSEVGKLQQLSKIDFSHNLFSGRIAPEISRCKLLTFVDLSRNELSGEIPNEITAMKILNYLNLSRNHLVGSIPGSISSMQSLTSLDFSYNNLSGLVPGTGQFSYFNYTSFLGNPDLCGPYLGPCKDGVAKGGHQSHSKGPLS
pKd: −log10 of the molar value.
test-readout: pKd

[
  {
    "binder": "RLVPSGPNPLHN [CLE9]",
    "numeric-readout": 9.22
  },
  {
    "binder": "RTVPSGPDPLHH [CLV3]",
    "numeric-readout": 4.85
  }
]
